- test-summary: Inhibitory activity against Translocase I
endpoint-label: IC50 (µM)

Example entries and their recorded answers appear below.
CCCCCCCCNC[C@H](O[C@@H]1O[C@H](CN)[C@@H](O)[C@H]1O)[C@@H]1C[C@@H](O)[C@H](n2ccc(=O)[nH]c2=O)O1.O=C(O)C(F)(F)F; 0.82
NC[C@H]1O[C@@H](O[C@@H](CNCc2ccc(OC(F)(F)F)cc2)[C@@H]2C[C@@H](O)[C@H](n3ccc(=O)[nH]c3=O)O2)[C@H](O)[C@@H]1O; 0.3
NC[C@H]1O[C@@H](O[C@@H](CNc2ccc(C3CCCCC3)cc2)[C@@H]2C[C@@H](O)[C@H](n3ccc(=O)[nH]c3=O)O2)[C@H](O)[C@@H]1O; 0.18
NC[C@H]1O[C@@H](O[C@@H](CNCc2cccnc2)[C@@H]2C[C@@H](O)[C@H](n3ccc(=O)[nH]c3=O)O2)[C@H](O)[C@@H]1O; 4.8
COc1ccc(CN(C)C[C@H](O[C@@H]2O[C@H](CN)[C@@H](O)[C@H]2O)[C@@H]2C[C@@H](O)[C@H](n3ccc(=O)[nH]c3=O)O2)cc1; 1.4

P: CN1CCCC1CCNC[C@H](O[C@@H]1O[C@H](CN)[C@@H](O)[C@H]1O)[C@@H]1C[C@@H](O)[C@H](n2ccc(=O)[nH]c2=O)O1 (stereo not given in full)
Q: CCCCCNC[C@H](O[C@@H]1O[C@H](CN)[C@@H](O)[C@H]1O)[C@@H]1C[C@@H](O)[C@H](n2ccc(=O)[nH]c2=O)O1.O=C(O)C(F)(F)F
R: CCCCCCCCCCCCN(C)C[C@H](O[C@@H]1O[C@H](CN)[C@@H](O)[C@H]1O)[C@@H]1C[C@@H](O)[C@H](n2ccc(=O)[nH]c2=O)O1
Order the records by IC50, with each subsequent value no larger than the one before. Put the labels in the requested order and write them down.
P, Q, R
(P: 3.9 µM, Q: 0.9 µM, R: 0.23 µM)

I: CC(C)c1ccc(C(=O)NC[C@H](O[C@@H]2O[C@H](CN)[C@@H](O)[C@H]2O)[C@@H]2C[C@@H](O)[C@H](n3ccc(=O)[nH]c3=O)O2)cc1
II: NC[C@H]1O[C@@H](O[C@@H](CNC(=O)c2ccc(Oc3ccccc3)cc2)[C@@H]2C[C@@H](O)[C@H](n3ccc(=O)[nH]c3=O)O2)[C@H](O)[C@@H]1O
Lower value for measured IC50? Options: I , II Choose, then provide that item's label.
II
(II: 0.2 µM, I: 0.4 µM)

----------
- Test system: Staphylococcus aureus
- test-summary: Tested in vitro for antibacterial activity against Staphylococcus aureus using micro-broth dilution method
- Type: functional
endpoint-label: MIC (µg/mL)

CCCCCCCCCCCCCCNC[C@H](O[C@@H]1O[C@H](CN)[C@@H](O)[C@H]1O)[C@@H]1C[C@@H](O)[C@H](n2ccc(=O)[nH]c2=O)O1.O=C(O)C(F)(F)F; 2.5

a: CCCCCCCCCCNC[C@H](O[C@@H]1O[C@H](CN)[C@@H](O)[C@H]1O)[C@@H]1C[C@@H](O)[C@H](n2ccc(=O)[nH]c2=O)O1.O=C(O)C(F)(F)F
b: CCCCCCCCCCCCNC[C@H](O[C@@H]1O[C@H](CN)[C@@H](O)[C@H]1O)[C@@H]1C[C@@H](O)[C@H](n2ccc(=O)[nH]c2=O)O1.O=C(O)C(F)(F)F
Lowest MIC? choose a or b Refer to your chosen entry by its label in the reply.
b
(b: 5 µg/mL, a: 40 µg/mL)
